B1: NP_009172.2 (parent)
chain: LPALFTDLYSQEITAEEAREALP

# Variants of: B1
# assay.summary: protein stability index of a GFP-peptide fusion (GPS, HEK-293T) (PSI 1-6); higher = more stable;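 further: lentivirally expressed fusion library, cells FACS-sorted into six equal-sized GFP/DsRed ratio bins, PSI computed from sequencing read fractions per bin weighted by bin number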
# assay.conditions: c terminus: native
For each entry below, report its protein stability index value.
Please reply with the value in numeric form only.

q: // protein stability index lookup, key: E12L
a: 3.04

q: What do you get for L1E ?
a: 2.96

q: Entry to check: L8F
a: 3.05
